Values were extracted from paper PMC10467532.

- Target Or Test System: PDGFRα (Homo sapiens)
- Sequence (P16234 24-1089): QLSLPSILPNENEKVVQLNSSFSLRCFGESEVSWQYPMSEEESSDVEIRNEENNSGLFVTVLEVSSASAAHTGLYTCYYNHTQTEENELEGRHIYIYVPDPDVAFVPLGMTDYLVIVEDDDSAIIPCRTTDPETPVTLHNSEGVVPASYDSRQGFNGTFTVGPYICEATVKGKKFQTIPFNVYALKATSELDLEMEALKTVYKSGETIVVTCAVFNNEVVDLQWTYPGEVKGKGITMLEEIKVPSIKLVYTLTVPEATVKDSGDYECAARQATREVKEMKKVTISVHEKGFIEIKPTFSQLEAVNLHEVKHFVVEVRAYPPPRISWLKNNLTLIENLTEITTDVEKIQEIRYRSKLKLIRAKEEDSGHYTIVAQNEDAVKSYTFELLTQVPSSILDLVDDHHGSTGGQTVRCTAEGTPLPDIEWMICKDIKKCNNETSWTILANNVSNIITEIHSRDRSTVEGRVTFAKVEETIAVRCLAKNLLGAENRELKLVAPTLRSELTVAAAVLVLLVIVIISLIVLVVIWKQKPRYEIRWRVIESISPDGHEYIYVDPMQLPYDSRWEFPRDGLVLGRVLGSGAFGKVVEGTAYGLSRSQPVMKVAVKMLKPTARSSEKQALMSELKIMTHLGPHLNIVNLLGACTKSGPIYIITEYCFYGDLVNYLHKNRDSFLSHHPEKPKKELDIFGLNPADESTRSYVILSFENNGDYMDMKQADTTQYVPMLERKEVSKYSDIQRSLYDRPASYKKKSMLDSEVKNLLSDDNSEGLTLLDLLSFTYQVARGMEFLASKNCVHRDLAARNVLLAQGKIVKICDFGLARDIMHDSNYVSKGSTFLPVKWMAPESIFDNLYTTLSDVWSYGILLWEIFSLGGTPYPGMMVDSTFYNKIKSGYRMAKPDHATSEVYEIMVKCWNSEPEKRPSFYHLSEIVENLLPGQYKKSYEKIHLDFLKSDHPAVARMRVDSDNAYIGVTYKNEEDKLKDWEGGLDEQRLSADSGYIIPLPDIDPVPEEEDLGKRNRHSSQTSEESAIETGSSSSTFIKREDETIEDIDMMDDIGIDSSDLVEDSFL
Measured Endpoint: IC50 (nM)
Express it in nM; write the number only.

input: // lookup IC50 | system=PDGFRα (Homo sapiens) | key= O=C(Nc1ccc(Oc2ccnc(Cl)c2Cl)c(F)c1)c1nc(-c2ccc(F)c(Cl)c2)cs1 [Compound 51am]
output: 425

====

- Target Or Test System: Flt-3 (Homo sapiens)
- Sequence (P36888 27-993): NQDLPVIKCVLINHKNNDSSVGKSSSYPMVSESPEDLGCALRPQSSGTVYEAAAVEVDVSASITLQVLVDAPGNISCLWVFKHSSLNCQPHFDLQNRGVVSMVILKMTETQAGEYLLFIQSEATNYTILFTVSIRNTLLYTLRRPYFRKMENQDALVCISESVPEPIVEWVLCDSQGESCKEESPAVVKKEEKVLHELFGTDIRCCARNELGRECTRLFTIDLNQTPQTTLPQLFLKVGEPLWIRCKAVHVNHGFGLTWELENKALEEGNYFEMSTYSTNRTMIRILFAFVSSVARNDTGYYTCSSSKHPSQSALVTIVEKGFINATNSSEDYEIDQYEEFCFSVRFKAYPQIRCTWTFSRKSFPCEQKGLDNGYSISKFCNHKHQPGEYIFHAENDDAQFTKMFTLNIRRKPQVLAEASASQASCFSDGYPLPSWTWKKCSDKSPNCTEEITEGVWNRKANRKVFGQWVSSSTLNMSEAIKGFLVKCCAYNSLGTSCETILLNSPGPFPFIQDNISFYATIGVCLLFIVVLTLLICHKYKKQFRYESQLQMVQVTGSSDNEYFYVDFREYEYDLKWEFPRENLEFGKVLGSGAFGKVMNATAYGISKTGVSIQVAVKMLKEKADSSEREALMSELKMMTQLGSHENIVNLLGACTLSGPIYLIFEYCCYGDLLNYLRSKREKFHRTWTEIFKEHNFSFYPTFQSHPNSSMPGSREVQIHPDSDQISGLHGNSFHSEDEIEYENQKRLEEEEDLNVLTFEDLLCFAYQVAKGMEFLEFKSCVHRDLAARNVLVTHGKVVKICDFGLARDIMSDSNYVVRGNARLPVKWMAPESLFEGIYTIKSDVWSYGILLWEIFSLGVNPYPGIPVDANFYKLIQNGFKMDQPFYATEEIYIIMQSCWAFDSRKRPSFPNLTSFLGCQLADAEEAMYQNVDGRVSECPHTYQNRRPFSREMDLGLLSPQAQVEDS
Measured Endpoint: IC50 (nM)
# unit: nM | format: bare number

input: Fill in the blank: the reported IC50 of O=C(Nc1ccc(Oc2ccnc(Cl)c2Cl)c(F)c1)c1nc(-c2ccc(F)c(Cl)c2)cs1 [Compound 51am] is ____.
output: 6.12
